# Tested on: 786-0
# test-description: NCI tumour cell line growth inhibition, 48 h
Active and inactive are the calls of the source. Rule as the data show it: active = GI50 up to about 1.1 µM and inactive = higher.
observed-property: GI50

These solved cases illustrate the format of a correct answer.
CC(=O)O[C@@H]1[C@H](C(C)C)[C@@H](OC(C)=O)C/C(C)=C/CC[C@]2(C)O[C@@H]12	> 100 µM (inactive)
CCC(=O)C1(c2ccccc2)CCN(C)CC1	> 100 µM (inactive)
CCC(=O)Oc1c2ccsc2c(OC(=O)CC)c2ccsc12	2.13 µM (inactive)
Cc1ccc2c3c1O[C@H]1c4nc5ccccc5cc4C[C@@]4(O)[C@@H](C2)N(CC2CC2)CC[C@]314	10.8 µM (inactive)
O=C(COc1cc(=O)oc2ccccc12)c1ccccc1	30.2 µM (inactive)

Hello, I would appreciate it if you could give GI50 for each entry below.
1. COc1ccc(/C=C/C(=O)c2sc(-n3nc(-c4ccccc4)cc3-c3ccccc3)nc2C)cc1OC
2. O=C(Nc1ccccc1)c1cc(S(=O)(=O)Nc2n[nH]c(=O)[nH]2)c(SSc2cc(Cl)c(C(=O)Nc3ccccc3)cc2S(=O)(=O)Nc2n[nH]c(=O)[nH]2)cc1Cl

36.4 µM (inactive)
> 100 µM (inactive)
